# Organism: Bos taurus
# Experiment Notes: Inhibition of beef heart mitochondrial NADH oxidase assessed as specific activity at 0.35 mM preincubated for 15 mins relative to control
# Parameters: scale not given: the % may be the effect or the level left
Would you mind sorting the entries by Activity according to these classes? bin 0: < 10%; bin 1: ≥ 10% and < 80%; bin 2: ≥ 80%

Check out these entries, answers already filled in.
- COc1ccc(-c2oc3cc(O)cc(O)c3c(=O)c2O)cc1: bin 1
- O=c1cc(-c2ccccc2)oc2cc(O)cc(O)c12: bin 1
- COc1ccccc1-c1cc(=O)c2c(OC)cccc2o1: bin 2
- O=C1C[C@@H](c2ccc(O)cc2)Oc2cc(O)cc(O)c21: bin 2
- O=c1cc(-c2ccccc2)oc2ccccc12: bin 1

In: Band for `COc1ccc(-c2cc(=O)c3c(O)cc(O)cc3o2)cc1` ?
Out: bin 2

In: Band for `O=c1c(O)c(-c2ccc(O)c(O)c2)oc2cc(O)ccc12` ?
Out: bin 0

In: Band for `O=c1c(O)c(-c2ccc(O)cc2O)oc2cc(O)cc(O)c12` ?
Out: bin 1

In: Band for `O=c1c(-c2ccc(O)cc2)coc2cc(O)cc(O)c12` ?
Out: bin 0

Cited source: ChEMBL document CHEMBL1150720
